Experiment: yeast display, Sf9 membrane polyspecificity reagent, FACS + sequencing; frameworks hold sequencing errors

{"columns": ["SEQUENCE_STRING", "polyreactivity (PSR sort gate)"],
 "data": [
  ["QVQLVESGGGLVQAGGSLRLSCDAAGLIFRLNAMGWYRPAPGKERELVAAISFSGGGTYYADSVKGRFTISRDNAKNTVYLQMNSLKPEDTAVYFCAADEYAVYYYYNYEYWGQGTQVTVSS", "high polyreactivity"],
  ["QVQLVESCGGLVQAGGSLRLSCAPSGSIFVCYAMGWYRQAPWKEREFVAAITSGRGTYYADSVKGRFTRSRDNAQITVYLQMNSLKPEDTEVYYCNTVWRTRSFRAPAVAYGYWGQGTQVTVSS", "high polyreactivity"]
]}

====

Assay: yeast display, Sf9 membrane polyspecificity reagent, FACS + sequencing; frameworks hold sequencing errors
READOUT_NAME: polyreactivity (PSR sort gate)

// solved cases for polyreactivity (PSR sort gate) follow
{"columns": ["SEQUENCE_STRING", "polyreactivity (PSR sort gate)"],
 "data": [
  ["QVQLVESGGGLVQAGGSLRLSCAASGITLYRYAMGWYRPAPGKERELVADISSGGGTTYYADSVKGRFTISRDNAKNTVSLQMNSLKPEDTALYYCAADYGFRYPLYDYWGQGTQVTVSS", "low polyreactivity"],
  ["QVQLVESGGGLVQAGGSLRLSCAASGFTFGYYAMGWYRQAPGKERELVAAITYSGGSTYYADSVKGRFTISRDNAKNTVYLQMNSLNPEDTAVYYCNAYARRYYYGRWYGEFDYWGQGTQVTLSS", "low polyreactivity"],
  ["QVQLVESGGGLVQAGGSLRLSCAASGFTIGYKVMGWYRQAPGKERELVATISWNGARTYYADSVKGRFTISRDNAKNTVYLQMNSLKPEDTAVYYCAARRYYRGEYDYWGQGTQVTVSS", "low polyreactivity"],
  ["QVQLVESGGGLVQAGGSLRLSCAASGITFRTYAMGWYRQAPGKERELVAAISSSGGSTYYADSVKGRFTISRDNAKNTVYLQMNSLKPADTAVYYCAAEWIADLSSPVWYDYWGQGTQVTVSS", "high polyreactivity"]
]}

Consider now this further sequence.
The value of polyreactivity (PSR sort gate) measured for the sequence QVQLVESGGGLVQAGGSLRLSCAASGRIFSSYVMGLYRQAPGKERELVAAIRWSGGSTYYADSVKGRFTISRDNAKNTVYLQMNSLKPEDTAVYYCAAEVYRYYATGYGYWGQGTQVTVSS turned out to be high polyreactivity

====

Assay: yeast display, Sf9 membrane polyspecificity reagent, FACS + sequencing; frameworks hold sequencing errors
READOUT_NAME: polyreactivity (PSR sort gate)

For orientation, consider the following solved cases.
{"columns": ["SEQUENCE_STRING", "polyreactivity (PSR sort gate)"],
 "data": [
  ["KVQLVESGGGLVQAGGSIRLSCDASGRSFYYYAMGWYRQAPGKEREWVAAINTRGTSTYYADSVKGRFTISRDNAKNTVYLQMNSLKPEDTAVYYCAVDPYGDSWEDWFRNYYYGYDYWGQGTQGTVSS", "low polyreactivity"],
  ["QVQLVESGGGLLQAGGSLRLSCAASGFTFGFYGRGWYRQAPGKERELVAAISYSGGTTYYADSVKARFTIARDNAKNTVYLQMNCLKPQDTAVNYCNTQSRETEDADYWGQGTQVTVSS", "high polyreactivity"],
  ["QVQLVESGGGLVQAGGSLRLSCAASGSTFNPYAMAWYRQAPGKEREFVAAISWRGGSTYYADSVKGRFTISRDNAKNTVYLQMNSLKPEDTAVYYCAARRLYSHTTSGRGYWGQGTQVTVSS", "high polyreactivity"],
  ["QVQLVESGGGLVQAGGSLRLSCAASGSTFVENAMGWYRQAPGKEREVVAAISSSGDSTFYADSVKGRFTISRDNAKNTVYLQMKSLKPEDTAVYYCAADRRINYDGLDMDYWGQGTQVTVSS", "low polyreactivity"]
]}

Shift focus to the following entry.
For QVQLVESGGGLVQAGGSLRLSCAASGSIFFPYTMGWYRQAPGKERELVARISLGGGRTYYADSVKGRFTISRDNAKNTVYLQMNSLKPEDTAVYYCNRGGWYAYYWGQGTQVTVSS the sequence record lists polyreactivity (PSR sort gate) as high polyreactivity

====

Experiment: yeast display, Sf9 membrane polyspecificity reagent, FACS + sequencing; frameworks hold sequencing errors
READOUT_NAME: polyreactivity (PSR sort gate)

Below, 6 sequences whose answers are already recorded.
{"columns": ["SEQUENCE_STRING", "polyreactivity (PSR sort gate)"],
 "data": [
  ["QVQLVESRGRLVQAGGSLRLSCAASGSIFVGNAMGWYRQAPGKERELVAAISSGGSTYYADSVKGRFTISRDNAKNTVYLQMNSLKPEDTAVYFGAAYYVRRYSSRPKDDYWGQGTQVSVSS", "low polyreactivity"],
  ["QVQLVESGGGLVQAGGSLSLSCAASGRTFKYYTMGWYRQAPGKERELVAAISASGGSTYYADSVKGRFTISRDNAKNTVYLQMNSLKPEDTAVYYCAKGANRAIHKQPTRSRLDSWGQGTQVTVSS", "high polyreactivity"],
  ["QVQLVESGGGLVQAGGSLRLSCAASGFIFYYNDMGWYRQAPGKERELVAAISGGVGSTYYADSVKGRFTISRDNAKNTVYLQMNSLKPEDSAVYYCATRRYSLTYGLGYDYWGQGTQVTVSS", "low polyreactivity"],
  ["QVQLVESGGGLVQAGGSLRLSCAASGSIFYDNAMGWYRQAPGKERELVASIRYSGVRTYYADSVKGRFTISRDNAKNTVYLQMNSLKPEDTAVYYCAADVYRQFYPFKSDYWGQGTQVTVSS", "high polyreactivity"],
  ["QVQLVESGGGLVQAGGSLRLSCAASGSTFHRYTMGWYRQAPGKERELLAAISWSGGSTYYADSVKGRFTISRDNAKNTVYLQMNSLKPEDTAVYYSNKVTVYRFRGDSWGQGTQVTVSS", "high polyreactivity"],
  ["QVQLVESGGGLVQAGGSLRLSCAASGFIFRRYAMGWYRQAPGKERELVAIITSGVRTYSADSVKGRFTISRDNAKNTVYLQMNSLKPEDTAVYYCAARVKDYPEYDYWGQGTQVTVSS", "low polyreactivity"]
]}

For reference, reported polyreactivity (PSR sort gate) for QVQLVESGGGLVQAGGSLRLSCAASGSIFGENAMGWYRQATGKERELVAAITWGGTSTYYADSVKGRYTISRDNAKNTVYLQMNSLKPEDTAVYYCNTPRYVRRQGVKRYDYWGQGTQVTVSS stands at low polyreactivity

get_value(item= QVQLVVSGGGLVQAGGSLRLSCAASGRIFYTYAMGWYIQAPGKERELVATITDGGSTYYADSVKVRFTISRDNAMNNVYLQMNILKPEDTAVYYCAADAYQWYDWGQGTHVTVSS , readout=polyreactivity (PSR sort gate)) returns low polyreactivity

Data point: QVQLVESGGGLVQAGGSLRLSCAASGSTFYPYAMGWYRQAPGKERELVAAISSSGGSTYYADSVKGRFTISRDNAKNTVYLQMNSLKPEDTAVYYCNADVHSQYDYWGQGTQVTVSS ; polyreactivity (PSR sort gate) = low polyreactivity

====

Experiment: yeast display, Sf9 membrane polyspecificity reagent, FACS + sequencing; frameworks hold sequencing errors
READOUT_NAME: polyreactivity (PSR sort gate)

Please review the following examples before continuing.
{"columns": ["SEQUENCE_STRING", "READOUT_NAME", "RESULT"],
 "data": [
  ["QVQLVESGGGLVQAGGSLRLSCAASGRIFKYYTMGWYRQAPGKERELVARISSSGGSTYYADSVKGRFTISRDNAKNTVYLQMNSLKPEDTAVYYCNTRAAYHQTTHKYERDYWGQGSQVTVSS", "polyreactivity (PSR sort gate)", "low polyreactivity"],
  ["QVQLLESGGGLVQAGGSLRLSCAASGSTFDYKSMGWYRQAPGKERELVATINDSGGNTYYADSVKGRFTISRDNAKNTVYLQMNSLKPEDTAVYYCATVGYLYTPVVVTWWDWGDYWGQGTQVTVSS", "polyreactivity (PSR sort gate)", "low polyreactivity"],
  ["QVQLVESGGGLVQAGGSLRLSCAASGSTFARNAMGWYRQAPGKEREFVATISSSGGRTYYADSVKGRFTISRDIAKNTVYLQMNSLNPEDTAVYYCNKALRTYPLFYYWGQGTQVTVSS", "polyreactivity (PSR sort gate)", "high polyreactivity"],
  ["QVQLVESGGGLVQAGGSLRLSCAASGRIFRYYAMGWYRQEPGKERELVAVITRGTSTKYADSVKGRFTISRDNAKITVYLQMNSLKPEDTAVYYCAADYWYANVGFDYWGQGTQVTVSS", "polyreactivity (PSR sort gate)", "high polyreactivity"],
  ["QVQLVESGGGLVQAGGSLRLSCAASGRTFLLYAMGWYRQAPGKERELVASITSDGRTNYADSVKGRFSISRDNAKNTVYLHMNSLKPEDTADYYCATVGKVHHRLVAMDYWGQGTQVTVSS", "polyreactivity (PSR sort gate)", "low polyreactivity"],
  ["QVQLVESGGGLVQAGGSLRLSCAASGSIFRAYTMGWYRQAPGKERELVAAINWSGGSTYYADSVKGRFTISRDNAKNTVYLQMNSLKPEDTAVYYCAKRWASWRYDYWGQGTQVTVSS", "polyreactivity (PSR sort gate)", "high polyreactivity"]
]}

Record QVHLVESGGALVQAGGSLRLSCAASGFIFRKYAMGWYRQAPGKERELVAAISYRGASTYYADSVKGRFTISRDNAKNTVYLQMNSLKPEDTAVYYCADRYSNPWARVSGYDYWGQGTQVTVSS . Reported polyreactivity (PSR sort gate): high polyreactivity

The reported polyreactivity (PSR sort gate) of the sequence QVQLVESGGGLVQAGGSLRLSCAASGIIFHPYAMGWYRQAPGKERELVAVITWPGDSTYYADSVKGRFRISRDNAKNTVYLQMNSLKPEDTAVYYCNVDAWGTSGELPYDYWGQGTQVTVSS was low polyreactivity

Given item QVQLVESGGGLVHAGGSLRLSCAASGRTFSAYAMGWYRQAPGKERELVAAISRSGGRTYYADSVKGRFTISRDNAKNTVYLQMNSLKPEDTAVYYCNALNLPDNQGTYDYWGQGTQVTVSS , the value recorded as its polyreactivity (PSR sort gate) is high polyreactivity

Lab note: measured polyreactivity (PSR sort gate) of QVQLVESGGGLVQAGGRLRLSCAASGITFTYYSMGGYRQAPGKERELVAAITDDGNTNYADSVKGRFTISRDNAKNTVYLQMNSLIPEDTAVYYCAADLLGIPDYEYWGQGTQVTVSS was low polyreactivity

Reported polyreactivity (PSR sort gate) for QVQLVESGGGLVQAGGSLRLICAASGSTFKRYAMGWYRQAPGKERELVAAISLSSGSTYYADSVKGRFTISRDNAKNTVYLQMNSLKPEDTAVYYCNAAKTYPDVYEYDYWGQGTQVTVSS was high polyreactivity
